Quick reference: half-life of the listed items.
- procedure.text: Half-life in phosphate buffer pH 7.4
- Format: physicochemical
- measurement.conditions: phosphate buffer, pH 7.4, t1/2 (half-life)
Supply the numeric figure in h, leaving out any unit text.

Fill in the blank: the reported half-life of C[C@@H](O)[C@H]1C(=O)N2C(C(=O)[O-])=C(SCC[n+]3cccc(N)c3)C[C@H]12 [Example 14] is ____. 18.5

Fill in the blank: the reported half-life of C[C@@H](O)[C@H]1C(=O)N2C(C(=O)[O-])=C(SCC[n+]3cccc(CO)c3)C[C@H]12 [Example 5] is ____. 14

Fill in the blank: the reported half-life of C[C@@H](O)[C@H]1C(=O)N2C(C(=O)[O-])=C(SCC[n+]3ccc(CO)cc3)C[C@H]12 [Example 6] is ____. 14.5

---

- procedure.text: Blood levels in mice after intramuscular administration
- Type: in vivo
- measurement.conditions: mouse, im, 20 mg/kg i.m.
- Description: a single test; 4 mice used per compound.
property.measured: AUC (ng·h/mL)
Supply the numeric figure in ng·h/mL, leaving out any unit text.

Fill in the blank: the reported AUC of `C[C@@H](O)[C@H]1C(=O)N2C(C(=O)[O-])=C(SCC[n+]3ccccc3)C[C@H]12` is ____. 6400

---

- Tested on: P. mirabilis A9900
- procedure.text: Protective effect, intramuscular treatment of infected mice (table 7)
- Assay type: in vivo
- measurement.conditions: Proteus mirabilis, A9900, im; i.m. 1 and 3.5 hours post-infection; ~1×10^7 organisms i.p.; read-out: PD50 /treatment
property.measured: ED50

Cc1cccc[n+]1CCSC1=C(C(=O)[O-])N2C(=O)[C@H]([C@@H](C)O)[C@H]2C1 = ~22 mg/kg
C[C@@H](O)[C@H]1C(=O)N2C(C(=O)[O-])=C(SCC[n+]3cccc(CO)c3)C[C@H]12 = 22 mg/kg
C[C@@H](O)[C@H]1C(=O)N2C(C(=O)[O-])=C(SCC[n+]3ccc(CO)cc3)C[C@H]12 = ~16 mg/kg
Cc1cc[n+](CCSC2=C(C(=O)[O-])N3C(=O)[C@H]([C@@H](C)O)[C@H]3C2)cc1 = ~38 mg/kg

Fill in the recorded ED50 for this molecule, with P. mirabilis A9900 as test system: `Cc1cc(C)c[n+](CCSC2=C(C(=O)[O-])N3C(=O)[C@H]([C@@H](C)O)[C@H]3C2)c1` ~22 mg/kg

---

Quick reference: Cmax of the listed items.
- procedure.text: Pharmacokinetic parameters in the mouse after intramuscular dose
- Type: in vivo, mice
- measurement.conditions: blood, im, 20 mg/kg
Supply the numeric figure in ng/mL, leaving out any unit text.

Known Cmax results, listed for orientation:
C[C@@H](O)[C@H]1C(=O)N2C(C(=O)[O-])=C(SCC[n+]3ccc(CO)cc3)C[C@H]12 = 15200
Cc1cc(C)c[n+](CCSC2=C(C(=O)[O-])N3C(=O)[C@H]([C@@H](C)O)[C@H]3C2)c1 = 11400
Cc1cc[n+](CCSC2=C(C(=O)[O-])N3C(=O)[C@H]([C@@H](C)O)[C@H]3C2)cc1 = 10600

Fill in the blank: the reported Cmax of `Cc1cccc[n+]1CCSC1=C(C(=O)[O-])N2C(=O)[C@H]([C@@H](C)O)[C@H]2C1` is ____. 15000

---

- System: S. aureus A-9537
- procedure.text: Minimum Inhibitory Concentration, tube dilution
- Assay type: cell-based
- measurement.conditions: Staphylococcus aureus, A9537, 50% serum; table 6; read-out: MIC
Quick reference: MIC of the listed items.
Supply the numeric figure in µg/mL, leaving out any unit text.

Known MIC results, listed for orientation:
C[C@@H](O)[C@H]1C(=O)N2C(C(=O)[O-])=C(SCC[n+]3cccc(CO)c3)C[C@H]12 = 0.06
CSc1cc[n+](CCSC2=C(C(=O)[O-])N3C(=O)[C@H]([C@@H](C)O)[C@H]3C2)cc1 = 0.016
COc1ccc[n+](CCSC2=C(C(=O)[O-])N3C(=O)[C@H]([C@@H](C)O)[C@H]3C2)c1 = 0.06
C[C@@H](O)[C@H]1C(=O)N2C(C(=O)[O-])=C(SCC[n+]3cccc(N)c3)C[C@H]12 = 0.016
CSc1n(C)cc[n+]1CCSC1=C(C(=O)[O-])N2C(=O)[C@H]([C@@H](C)O)[C@H]2C1 = 0.03
Cc1cccc[n+]1CCSC1=C(C(=O)[O-])N2C(=O)[C@H]([C@@H](C)O)[C@H]2C1 = 0.03

Then there is this compound:
Fill in the blank: the reported MIC of `Cc1cc(C)c[n+](CCSC2=C(C(=O)[O-])N3C(=O)[C@H]([C@@H](C)O)[C@H]3C2)c1` is ____. 0.03

---

Quick reference: MIC of the listed items.
- Test system: S. pneumoniae A-9585
- procedure.text: Minimum Inhibitory Concentration, tube dilution
- Type: cell-based
- measurement.conditions: Streptococcus pneumoniae, A9585, overnight 37° C.; table 6
Supply the numeric figure in ng/mL, leaving out any unit text.

Cc1cccc[n+]1CCSC1=C(C(=O)[O-])N2C(=O)[C@H]([C@@H](C)O)[C@H]2C1 = 30

Fill in the blank: the reported MIC of `CSc1cc[n+](CCSC2=C(C(=O)[O-])N3C(=O)[C@H]([C@@H](C)O)[C@H]3C2)cc1` is ____. 2

Fill in the blank: the reported MIC of `Cc1cc[n+](CCSC2=C(C(=O)[O-])N3C(=O)[C@H]([C@@H](C)O)[C@H]3C2)cc1` is ____. 30

Fill in the blank: the reported MIC of `COc1ccc[n+](CCSC2=C(C(=O)[O-])N3C(=O)[C@H]([C@@H](C)O)[C@H]3C2)c1` is ____. 2

Fill in the blank: the reported MIC of `Cc1cc(C)c[n+](CCSC2=C(C(=O)[O-])N3C(=O)[C@H]([C@@H](C)O)[C@H]3C2)c1` is ____. 30

---

Quick reference: ED50 of the listed items.
- System: P. aeruginosa A9843A
- procedure.text: animal or person
- Type: in vivo, mice
- measurement.conditions: Pseudomonas aeruginosa, in Mus musculus, im, 3.5 h, read-out: PD50 /treatment
Supply the numeric figure in mg/kg, leaving out any unit text.

Known ED50 results, listed for orientation:
Cc1cc[n+](CCSC2=C(C(=O)[O-])N3C(=O)[C@H]([C@@H](C)O)[C@H]3C2)cc1 = 0.9
Cc1cc(C)c[n+](CCSC2=C(C(=O)[O-])N3C(=O)[C@H]([C@@H](C)O)[C@H]3C2)c1 = 5
C[C@@H](O)[C@H]1C(=O)N2C(C(=O)[O-])=C(SCC[n+]3cccc(CO)c3)C[C@H]12 = 0.9
C[C@@H](O)[C@H]1C(=O)N2C(C(=O)[O-])=C(SCC[n+]3ccc(CO)cc3)C[C@H]12 = 0.9

Fill in the blank: the reported ED50 of `Cc1cccc[n+]1CCSC1=C(C(=O)[O-])N2C(=O)[C@H]([C@@H](C)O)[C@H]2C1` is ____. 0.9

---

- System: S. aureus A-9537
- procedure.text: Minimum Inhibitory Concentration, tube dilution
- Format: cell-based
- measurement.conditions: Staphylococcus aureus, A9537, 50% serum; table 6; read-out: MIC
Quick reference: MIC of the listed items.
Supply the numeric figure in µg/mL, leaving out any unit text.

CSc1ccc[n+](CCSC2=C(C(=O)[O-])N3C(=O)[C@H]([C@@H](C)O)[C@H]3C2)c1 [Example 11] = 0.03
Cc1cc[n+](CCSC2=C(C(=O)[O-])N3C(=O)[C@H]([C@@H](C)O)[C@H]3C2)cc1 [Example 8] = 0.06

Fill in the recorded MIC for this molecule, with S. aureus A-9537 as test system: Cc1cccc(C)[n+]1CCSC1=C(C(=O)[O-])N2C(=O)[C@H]([C@@H](C)O)[C@H]2C1 [Example 12] 0.03

---

- procedure.text: Urinary recovery in mice after intramuscular administration
- Format: in vivo
- measurement.conditions: mouse, urine, im, 20 mg/kg, 0-24 hours, 20 mg/kg i.m., read-out: Percentage of Dose Recovered (urine)
property.measured: dose excreted at 24 h (%)
Supply the numeric figure in %, leaving out any unit text.

Fill in the blank: the reported dose excreted at 24 h of `C[C@@H](O)[C@H]1C(=O)N2C(C(=O)[O-])=C(SCC[n+]3ccccc3)C[C@H]12` is ____. 24.2

---

- procedure.text: Pharmacokinetic parameters in the mouse after intramuscular dose
- Format: in vivo, mice
- measurement.conditions: blood, im, 20 mg/kg
property.measured: AUC

Known AUC results, listed for orientation:
Cc1cccc[n+]1CCSC1=C(C(=O)[O-])N2C(=O)[C@H]([C@@H](C)O)[C@H]2C1 [Example 7] = 7000 ng·h/mL
Cc1cc(C)c[n+](CCSC2=C(C(=O)[O-])N3C(=O)[C@H]([C@@H](C)O)[C@H]3C2)c1 [Example 4] = 5500 ng·h/mL
C[C@@H](O)[C@H]1C(=O)N2C(C(=O)[O-])=C(SCC[n+]3ccc(CO)cc3)C[C@H]12 [Example 6] = 7700 ng·h/mL

Fill in the blank: the reported AUC of Cc1cc[n+](CCSC2=C(C(=O)[O-])N3C(=O)[C@H]([C@@H](C)O)[C@H]3C2)cc1 [Example 8] is ____. 4600 ng·h/mL
